target or system: NAD(P)H dehydrogenase [quinone] 1 (Mus musculus) (UniProt Q64669)
Sequence (Q64669 whole entry): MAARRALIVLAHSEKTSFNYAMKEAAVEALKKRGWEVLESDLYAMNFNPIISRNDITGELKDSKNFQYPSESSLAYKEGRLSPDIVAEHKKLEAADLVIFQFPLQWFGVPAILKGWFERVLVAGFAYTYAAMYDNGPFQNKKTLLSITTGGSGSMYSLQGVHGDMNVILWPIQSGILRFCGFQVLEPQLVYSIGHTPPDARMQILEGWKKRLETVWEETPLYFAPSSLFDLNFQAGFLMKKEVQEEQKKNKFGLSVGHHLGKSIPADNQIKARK
assay summary: Induction of QR1 activity in mouse Hepa-1c1c7 cells assessed as induction ratio at 50 uM after 48 hrs by MTT assay relative to control
Format: cell-based
metric name: Ratio

Below, 8 compounds whose answers are already recorded.
{"columns": ["mol", "Ratio"],
 "data": [
  ["C#CCn1c(-c2ccccc2)cc2ccccc21", 0.87],
  ["Nc1ccc(-c2cc3ccccc3[nH]2)cc1", 0.56],
  ["COCn1c(-c2ccccc2)cc2ccccc21", 1.9],
  ["C(=N\\OCc1ccccc1)/c1c(-c2ccccc2)[nH]c2ccccc12", 0.5],
  ["O=[N+]([O-])c1ccc2[nH]c(-c3ccccc3)cc2c1", 3.92],
  ["Cc1ccc2cc(-c3ccccc3)[nH]c2c1", 1],
  ["Cn1c(-c2ccc(Cl)c(Cl)c2)cc2ccccc21", 4.4],
  ["Clc1cccc(-c2cc3ccccc3[nH]2)c1", 5.2]
]}

(A) Cc1ccc(-c2cc3ccccc3[nH]2)cc1
(B) Cn1c(-c2ccccc2)cc2ccccc21
(C) FC(F)(F)Oc1ccc(-c2cc3ccccc3[nH]2)cc1
(D) Nc1ccccc1C#Cc1cc(F)cc(F)c1
In: In this exercise, place the 4 compounds in ascending sequence of their recorded Ratio. Labels, requested order.
Out: B, D, C, A

----------
target or system: Aromatase (Homo sapiens)
assay summary: Inhibition of CYP19A1 (unknown origin) at 50 uM preincubated with NADPH followed by DBF substrate addition after 30 mins by fluorescence based assay relative to control
metric name: inhibition at 50 µM (%)

{"columns": ["mol", "result unit", "inhibition at 50 µM"],
 "data": [
  ["COCn1c(-c2ccccc2)cc2ccccc21", "%", 20.2],
  ["COc1ccc(-c2cc3ccccc3[nH]2)cc1", "%", 0],
  ["COc1ccc2ccc(-c3cc4ccccc4[nH]3)cc2c1", "%", 0.07],
  ["CCCCCc1ccc(-c2cc3ccccc3[nH]2)cc1", "%", 0],
  ["O=[N+]([O-])c1ccc2[nH]c(-c3ccc(Cl)c(Cl)c3)cc2c1", "%", 7.59],
  ["Cc1ccccc1-c1cc2cc([N+](=O)[O-])ccc2[nH]1", "%", 71.5]
]}

(P) Cc1ccc(-c2cc3ccccc3[nH]2)cc1
(Q) Nc1ccc(-c2cc3ccccc3[nH]2)cc1
(R) Clc1ccccc1-c1cc2ccccc2[nH]1
(S) Cn1c(-c2ccccc2)cc2ccccc21
In: Output the entries ranked by inhibition at 50 µM from maximum down to minimum. Labels, requested order.
Out: Q, R, P, S

----------
target or system: NAD(P)H dehydrogenase [quinone] 1 (Mus musculus)
assay summary: Induction of QR1 activity in mouse Hepa-1c1c7 cells assessed as induction ratio at 50 uM after 48 hrs by MTT assay relative to control
Type: cell-based
metric name: Ratio

Below, 5 molecules whose answers are already recorded.
{"columns": ["molecule", "Ratio"],
 "data": [
  ["Nc1cccc(-c2cc3ccccc3[nH]2)c1", 2.7],
  ["Clc1ccc(-c2cc3ccccc3[nH]2)cc1Cl", 0.57],
  ["CC(C)(C)OC(=O)n1c(-c2ccccc2)cc2ccccc21", 1],
  ["c1ccc(C2Cc3ccccc3N2)cc1 (stereo not given)", 1.8],
  ["N#Cc1ccc2[nH]c(-c3ccccc3)cc2c1", 1.06]
]}

(a) COc1cccc(-c2cc3ccccc3[nH]2)c1
(b) Nc1ccc2[nH]c(-c3ccc(Cl)c(Cl)c3)cc2c1
(c) N#Cc1ccc2[nH]c(-c3cccnc3)cc2c1
(d) Cn1c(-c2ccccc2)cc2cc([N+](=O)[O-])ccc21
(e) O/N=C/c1c(-c2ccccc2)[nH]c2ccccc12
In: Output the entries ranked by Ratio from maximum down to minimum. Labels, requested order.
Out: b, e, c, a, d
(b: 4.9, e: 3.1, c: 2.1, a: 1.3, d: 0.89)

(P) O=[N+]([O-])c1ccc2[nH]c(-c3ccc(Cl)c(Cl)c3)cc2c1
(Q) Clc1ccc2cc(-c3ccccc3)[nH]c2c1
In: # returns the entry with the larger Ratio; inputs P and Q Reply with the label of the item you choose.
Out: Q
(Q: 4.25, P: 1.07)

----------
target or system: NAD(P)H dehydrogenase [quinone] 1 (Mus musculus)
assay summary: Induction of QR1 activity in mouse Hepa-1c1c7 cells assessed as drug concentration required to double enzyme activity after 48 hrs by MTT assay
Format: cell-based
metric name: CD (µM)

Below, 2 compounds whose answers are already recorded.
{"columns": ["mol", "target or system", "obs value"],
 "data": [
  ["Nc1ccc2[nH]c(-c3ccc(Cl)c(Cl)c3)cc2c1", "NAD(P)H dehydrogenase [quinone] 1 (Mus musculus)", 10.3],
  ["FC(F)(F)Oc1ccc(-c2cc3ccccc3[nH]2)cc1", "NAD(P)H dehydrogenase [quinone] 1 (Mus musculus)", 29.1]
]}

(I) Cn1c(-c2ccc(Cl)c(Cl)c2)cc2cc(N)ccc21
(II) Clc1ccc2cc(-c3ccccc3)[nH]c2c1
In: Select the item whose CD value is smaller, choosing between I and II . Reply with the label of the item you choose.
Out: II
(II: 6.8 µM, I: 46.7 µM)

----------
target or system: Aromatase (Homo sapiens)
assay summary: Inhibition of CYP19A1 (unknown origin) at 50 uM preincubated with NADPH followed by DBF substrate addition after 30 mins by fluorescence based assay relative to control
metric name: inhibition at 50 µM (%)

Below, 5 compounds whose answers are already recorded.
{"columns": ["mol", "target or system", "obs value"],
 "data": [
  ["Clc1ccc(-c2cc3ccccc3[nH]2)cc1Cl", "Aromatase (Homo sapiens)", 22.6],
  ["Nc1ccccc1C#Cc1cc(F)cc(F)c1", "Aromatase (Homo sapiens)", 9.27],
  ["Cc1ccccc1-c1cc2ccccc2[nH]1", "Aromatase (Homo sapiens)", 27.1],
  ["Nc1cccc(-c2cc3ccccc3[nH]2)c1", "Aromatase (Homo sapiens)", 26.7],
  ["Cn1c(-c2ccc(Cl)c(Cl)c2)cc2cc(N)ccc21", "Aromatase (Homo sapiens)", 42]
]}

(I) Cn1c(-c2ccccc2)cc2cc([N+](=O)[O-])ccc21
(II) COc1cc(OC)cc(-c2cc3ccccc3[nH]2)c1
(III) Clc1ccc(-c2cc3ccccc3[nH]2)cc1
In: In this exercise, place the 3 compounds in ascending sequence of their recorded inhibition at 50 µM. Labels, requested order.
Out: II, III, I
(II: 9.18%, III: 15.8%, I: 77%)

----------
target or system: Aromatase (Homo sapiens, UniProt P11511)
Sequence (P11511 whole entry): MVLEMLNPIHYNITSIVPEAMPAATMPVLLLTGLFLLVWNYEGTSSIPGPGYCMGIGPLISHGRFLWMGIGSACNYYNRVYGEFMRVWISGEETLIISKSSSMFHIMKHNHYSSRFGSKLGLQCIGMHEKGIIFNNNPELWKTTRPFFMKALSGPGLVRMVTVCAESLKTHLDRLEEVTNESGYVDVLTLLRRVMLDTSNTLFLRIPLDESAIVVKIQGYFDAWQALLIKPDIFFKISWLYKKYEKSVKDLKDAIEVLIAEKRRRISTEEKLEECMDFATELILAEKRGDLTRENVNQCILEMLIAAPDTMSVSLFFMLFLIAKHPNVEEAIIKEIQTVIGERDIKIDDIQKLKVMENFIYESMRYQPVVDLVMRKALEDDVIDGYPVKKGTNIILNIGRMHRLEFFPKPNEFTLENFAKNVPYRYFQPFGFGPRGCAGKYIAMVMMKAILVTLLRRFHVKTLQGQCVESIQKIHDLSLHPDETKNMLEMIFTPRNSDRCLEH
assay summary: Inhibition of CYP19A1 (unknown origin) at 50 uM preincubated with NADPH followed by DBF substrate addition after 30 mins by fluorescence based assay relative to control
metric name: inhibition at 50 µM (%)

Below, 3 compounds whose answers are already recorded.
{"columns": ["compound", "metric name", "obs value"],
 "data": [
  ["Brc1ccc(-c2cc3ccccc3[nH]2)cc1", "inhibition at 50 µM", 4.8],
  ["c1ccc(C2Cc3ccccc3N2)cc1 (stereo not drawn)", "inhibition at 50 µM", 49],
  ["O/N=C/c1c(-c2ccccc2)[nH]c2ccccc12", "inhibition at 50 µM", 40.4]
]}

(P) Fc1cc(F)cc(-c2cc3ccccc3[nH]2)c1
(Q) O=[N+]([O-])c1ccc2[nH]c(-c3ccccc3)cc2c1
(R) Clc1cccc(-c2cc3ccccc3[nH]2)c1
(S) CN(C)c1ccc(-c2cc3ccccc3[nH]2)cc1
In: In this exercise, place the 4 compounds in ascending sequence of their recorded inhibition at 50 µM. Labels, requested order.
Out: S, P, R, Q

(a) C#CCn1c(-c2ccccc2)cc2ccccc21
(b) Clc1ccc2cc(-c3ccccc3)[nH]c2c1
In: Select the item whose inhibition at 50 µM value is smaller, choosing between a and b . Reply with the label of the item you choose.
Out: b
(b: 13.6%, a: 26.3%)

----------
target or system: Aromatase (Homo sapiens)
assay summary: Inhibition of CYP19A1 (unknown origin) at 50 uM preincubated with NADPH followed by DBF substrate addition after 30 mins by fluorescence based assay relative to control
metric name: inhibition at 50 µM (%)

{"columns": ["mol", "target or system", "result unit", "inhibition at 50 µM"],
 "data": [
  ["Brc1ccc2[nH]c(-c3ccccc3)cc2c1", "Aromatase (Homo sapiens)", "%", 58.1],
  ["COc1cccc(-c2cc3ccccc3[nH]2)c1", "Aromatase (Homo sapiens)", "%", 48.4],
  ["c1ccc(-c2nc3ccccc3[nH]2)cc1", "Aromatase (Homo sapiens)", "%", 7.64]
]}

----------
target or system: NAD(P)H dehydrogenase [quinone] 1 (Mus musculus) (UniProt Q64669)
assay summary: Induction of QR1 activity in mouse Hepa-1c1c7 cells assessed as induction ratio at 50 uM after 48 hrs by MTT assay relative to control
Assay type: cell-based
metric name: Ratio

(1) CN(C)c1ccc(-c2cc3ccccc3[nH]2)cc1
(2) Cc1ccccc1-c1cc2cc([N+](=O)[O-])ccc2[nH]1
(3) Brc1ccc2[nH]c(-c3ccccc3)cc2c1
(4) Cn1c(-c2ccc(Cl)c(Cl)c2)cc2cc(N)ccc21
(5) COc1cc(OC)cc(-c2cc3ccccc3[nH]2)c1
In: Lab note: rank above entries, Ratio ascending. Labels, requested order.
Out: 2, 1, 4, 5, 3
(2: 0.78, 1: 1.21, 4: 2.14, 5: 3.75, 3: 5.5)

(I) c1cncc(-c2cc3ccccc3[nH]2)c1
(II) Nc1ccc2[nH]c(-c3ccccc3)cc2c1
(III) Fc1ccc(-c2cc3ccccc3[nH]2)cc1
In: Output the entries ranked by Ratio from maximum down to minimum. Labels, requested order.
Out: III, I, II

(I) Fc1cc(F)cc(-c2cc3ccccc3[nH]2)c1
(II) COc1ccc(-c2cc3ccccc3[nH]2)cc1
(III) Brc1ccc(-c2cc3ccccc3[nH]2)cc1
In: Output the entries ranked by Ratio from maximum down to minimum. Labels, requested order.
Out: III, II, I

// data source = ChEMBL document CHEMBL4184169
